# target-of-assay: His-tagged CD8α human recombinant protein (MBS968456, MyBioSource) (human) (UniProt P01732)
# Sequence (P01732 22-182 limits assumed): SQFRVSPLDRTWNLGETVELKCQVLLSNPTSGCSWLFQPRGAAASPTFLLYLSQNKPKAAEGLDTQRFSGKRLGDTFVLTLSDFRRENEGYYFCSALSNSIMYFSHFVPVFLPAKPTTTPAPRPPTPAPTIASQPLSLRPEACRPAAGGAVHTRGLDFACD
# experimental-protocol: sandwich ELISA; biotinylated biligand on NeutrAvidin plate, His-tagged CD8α titrated
Square brackets hold non-standard residues; d marks the D form. Primed or numbered codes have the meaning given here. Ends that are not written are not given here. * marks the point of attachment. PEG3′ = PEG linker of three ethylene glycol repeat units; Biotin = O=C1N[C@H]2[C@H](CS[C@H]2CCCCC(=O)*)N1; Pra = C#CC[C@H](N)C(=O)O
endpoint-name: fold below the affinity of the optimal linker (PEG5) biligand (fold)
A number alone suffices; assume fold.

What value of fold below the affinity of the optimal linker (PEG5) biligand has been recorded for this entry: Biotin-PEG3-Cy(HGRGH)-PEG6-Cy(wplrf) (not fully specified (some residues, C-terminus); printed as Biotin-PEG3-Cy(HGRGH)-PEG6-Cy(wplrf); numbers in words are those of the source; also: joined C-terminally through a PEG6 linker to the second macrocycle, triazole to a chain's N/C-terminus) peptide 1: {Biotin-PEG3′}-[Pra]HGRGH peptide 2: [Pra][dW][dP][dL][dR][dF] 10

// data source = patent US20170319722A1
